Provide the recorded Relative cAMP EC50 for the entries that follow.
- System name: T1, human GIP receptor (human) (UniProt P48546)
- T1 sequence (looked up): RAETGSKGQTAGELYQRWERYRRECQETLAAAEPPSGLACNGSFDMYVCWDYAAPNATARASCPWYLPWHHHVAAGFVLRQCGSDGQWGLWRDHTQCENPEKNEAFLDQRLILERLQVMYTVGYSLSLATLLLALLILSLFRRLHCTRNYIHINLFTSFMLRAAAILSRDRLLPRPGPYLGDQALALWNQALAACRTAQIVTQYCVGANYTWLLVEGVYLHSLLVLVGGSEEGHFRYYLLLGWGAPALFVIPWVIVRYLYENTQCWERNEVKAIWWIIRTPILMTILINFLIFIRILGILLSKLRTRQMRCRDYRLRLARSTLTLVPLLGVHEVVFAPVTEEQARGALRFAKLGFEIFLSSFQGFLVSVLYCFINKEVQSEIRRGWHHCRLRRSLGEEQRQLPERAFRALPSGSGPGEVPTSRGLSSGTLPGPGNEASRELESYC
- Assay info: cell-based or functional assay
One number for each entry, in nM.

Please review the entries below; each comes with its answer.
[
  {
    "Binder": "YXQGTFTSDFSKXLDKKAQXAFIEYLLAGGPSSGAPPPGGS (Aib, αMeL; acylated Lys; C-terminal amide; synthetic construct; SITE 2: note = 2-Aminoisobutyric Acid; SITE 13: note = alpha-methyl-leucine; SITE 17: note = Lysine is chemically modified through conjugation of the epsilon-amino group of the Lysine side chain with (2-[2-(2-Amino-ethoxy)-ethoxy]-acetyl)-(gamma-Glu)-CO-(CH2) 18-CO2H; SITE 20: n) [Example 16]",
    "Relative cAMP EC50 / nM": 0.217
  },
  {
    "Binder": "YXQGTFTSDFSQXLDKKAQXAFIEWLLEGGPSSGAPPPEGS (synthetic construct; SITE 2: note = 2-Aminoisobutyric Acid; SITE 13: note = alpha-methyl-leucine; SITE 17: note = Lysine is chemically modified through conjugation of the epsilon-amino group of the Lysine side chain with (2-[2-(2-Amino-ethoxy)-ethoxy]-acetyl)-(gamma-Glu)-CO-(CH2) 16-CO2H; SITE 20: n) [Example 774]",
    "Relative cAMP EC50 / nM": 0.128
  },
  {
    "Binder": "YXQGTXTSDXXIXLDXKAAXEFIEXLIEGGPSSGAPPPSGEEE (synthetic construct; SITE 2: note = 2-Aminoisobutyric Acid; SITE 6: note = alpha-methyl-2-fluoro-L-phenylalanine; SITE 10: note = 3-(4-Pyridyl)-L-alanine; SITE 11: note = alpha-methyl-L-serine; SITE 13: note = alpha-methyl-leucine; SITE 16: note = L-ornithine; SITE 17: note = Lysine is chemically mo) [Example 705]",
    "Relative cAMP EC50 / nM": 0.0128
  },
  {
    "Binder": "YXQGTFTSDFSXXLDKKAQXAFIEYLLAGGPSSGAPPPSGEX (synthetic construct; SITE 2: note = 2-Aminoisobutyric Acid; SITE 12: note = L-ornithine; SITE 13: note = alpha-methyl-leucine; SITE 17: note = Lysine is chemically modified through conjugation of the epsilon-amino group of the Lysine side chain with (2-[2-(2-Amino-ethoxy)-ethoxy]-acetyl)-(gamma-Glu)) [Example 91]",
    "Relative cAMP EC50 / nM": 0.243
  },
  {
    "Binder": "YXQGTXTSDXXIXLDXKAQXEFIEXLIEGGPSSGEPPPSGSE (non-natural residues; Lys acylated C18 diacid; C-terminal amide; synthetic construct; SITE 2: note = 2-Aminoisobutyric Acid; SITE 6: note = alpha-methyl-L-phenylalanine; SITE 10: note = 3-(4-Pyridyl)-L-alanine; SITE 11: note = alpha-methyl-L-serine; SITE 13: note = alpha-methyl-leucine; SITE 16: note = L-ornithine; SITE 17: note = Lysine is chemically modified th) [Example 1167]",
    "Relative cAMP EC50 / nM": 0.011
  }
]

# next binder below
Relative cAMP EC50 measured on YXQGTFTSDXXQXLDXKAQXQFIQXLIEXGPSSGAPPPSGGGE (not fully specified; N-methyl-Tyr, non-natural residues, acylated Lys (γGlu-C18 diacid), C-terminal amide; synthetic construct; SITE 1: note = N-methyl-tyrosine; SITE 2: note = 2-Aminoisobutyric Acid; SITE 10: note = 3-(4-Pyridyl)-L-alanine; SITE 11: note = alpha-methyl-L-serine; SITE 13: note = alpha-methyl-leucine; SITE 16: note = L-ornithine; SITE 17: note = Lysine is chemically modified …) [Example 1134] = 0.0391

src = patent US20240270821A1
